- TEST_TARGET: T1, light-activated bovine rhodopsin (metarhodopsin II) in rod outer segment membranes (bovine, UniProt P02699 1-348, retinylidene chromophore on Lys-296 (all-trans after light))
- T1 construct: whole, on cells; also called MII
- T1 sequence (P02699 whole entry): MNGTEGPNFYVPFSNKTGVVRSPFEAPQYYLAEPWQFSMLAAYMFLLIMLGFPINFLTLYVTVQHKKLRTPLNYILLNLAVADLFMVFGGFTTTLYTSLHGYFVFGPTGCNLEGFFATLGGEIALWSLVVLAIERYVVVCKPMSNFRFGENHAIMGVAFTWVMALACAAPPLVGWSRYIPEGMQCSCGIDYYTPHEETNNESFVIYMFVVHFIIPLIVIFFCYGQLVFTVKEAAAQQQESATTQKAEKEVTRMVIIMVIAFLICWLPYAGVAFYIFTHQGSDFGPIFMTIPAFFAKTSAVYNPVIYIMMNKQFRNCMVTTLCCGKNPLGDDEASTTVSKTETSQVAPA
- ASSAY_NOTES: ELISA of clone lysate on rhodopsin
- Protocol: The methods of Example 7 repeated using rhodopsin screening with a Gt library. To identify the rank order of binding, the lysates were analyzed using ELISA methods in which the secondary antibody was conjugated to HRP. Following addition of the substrate, the microplate was read using a spectrophotometer. The binding is the OD₄₅₀ for wells with receptor—OD₄₅₀ for wells in which no receptor (control wells with empty lipid vesicles).
In this section we review reported ELISA (OD450 with receptor minus OD450 without receptor) values for a set of binders.
QUANTITY_NAME: ELISA (OD450 with receptor minus OD450 without receptor)

BINDER: LacI fusion clone L6 (Gt library) (other, E. coli, not shown: small tags and cut ends) MKPVTLYDVAEYAGVSYQTVSRVVNQASHVSAKTREKVEAAMAELNYIPNRVAQQLAGKQSLLIGVATSSLALHAPSQIVAAIKSRADQLGASVVVSMVERSGVEACKAAVHNLLAQRVSGLIINYPLDDQDAIAVEAACTNVPALFLDVSDQTPINSIIFSHEDGTRLGVEHLVALGHQQIALLAGPLSSVSARLRLAGWHKYLTRNQIQPIAEREGDWSAMSGFQQTMQMLNEGIVPTAMLVANDQMALGAMRAITESGLRVGADISVVGYDDTEDSSCYIPPLTTIKQDFRLLGQTSVDRLLQLSQGQAVKGNQLLPVSLVKRKTTLAPNTQTASPRALADSLMQLARQVSRLESGQICENLKDCGLF
RESULT: 0.342 OD450
--
BINDER: LacI fusion clone 13 (Gt library), IRGSLKDCGLF (other, E. coli, not shown: small tags and cut ends, also called L20) MKPVTLYDVAEYAGVSYQTVSRVVNQASHVSAKTREKVEAAMAELNYIPNRVAQQLAGKQSLLIGVATSSLALHAPSQIVAAIKSRADQLGASVVVSMVERSGVEACKAAVHNLLAQRVSGLIINYPLDDQDAIAVEAACTNVPALFLDVSDQTPINSIIFSHEDGTRLGVEHLVALGHQQIALLAGPLSSVSARLRLAGWHKYLTRNQIQPIAEREGDWSAMSGFQQTMQMLNEGIVPTAMLVANDQMALGAMRAITESGLRVGADISVVGYDDTEDSSCYIPPLTTIKQDFRLLGQTSVDRLLQLSQGQAVKGNQLLPVSLVKRKTTLAPNTQTASPRALADSLMQLARQVSRLESGQIRGSLKDCGLF
RESULT: 0.423 OD450
